assay-target: human Kv1.3 ion channel (Homo sapiens)
Construct: Human Jurkat cells (which endogenously express hKv1.3) or Chinese Hamster Ovary (CHO) cells stably transfected with hKv1.3 were used; endogenous in cells
Sequence (P22001 whole entry): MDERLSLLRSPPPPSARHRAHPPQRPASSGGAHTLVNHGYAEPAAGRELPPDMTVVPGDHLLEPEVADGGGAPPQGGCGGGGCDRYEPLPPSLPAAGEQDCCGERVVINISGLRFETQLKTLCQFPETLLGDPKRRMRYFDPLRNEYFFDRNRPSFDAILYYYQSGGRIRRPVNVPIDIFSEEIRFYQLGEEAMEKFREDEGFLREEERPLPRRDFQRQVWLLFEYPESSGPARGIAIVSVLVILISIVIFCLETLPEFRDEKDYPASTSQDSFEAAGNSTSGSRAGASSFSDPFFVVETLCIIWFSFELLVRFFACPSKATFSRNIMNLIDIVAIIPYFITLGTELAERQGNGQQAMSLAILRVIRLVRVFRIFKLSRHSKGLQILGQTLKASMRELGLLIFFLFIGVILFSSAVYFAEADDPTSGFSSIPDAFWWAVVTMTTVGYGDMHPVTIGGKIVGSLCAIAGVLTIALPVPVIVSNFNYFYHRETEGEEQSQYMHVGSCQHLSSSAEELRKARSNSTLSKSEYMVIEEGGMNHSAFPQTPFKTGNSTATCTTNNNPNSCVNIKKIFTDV
protocol-description: Inhibition of Kv1.3 currents, planar patch clamp
condition-summary: Human Jurkat cells or CHO cells stably transfected with hKv1.3; averaged dose response data from 3 or more cells
property-name: EC50

- COc1c(Cl)c(C)c(C(C)=O)c(OCCCN2CCOCC2)c1OCCC(C)c1ccc(F)cc1 (centres unmarked) [Example 22b]: < 50 nM
- COc1c(Cl)c(C)c(C(C)=O)c(OCCN2CCCC(F)(F)C2)c1OCCC(C)c1ccc(F)cc1 (centres unmarked): < 50 nM
- COc1c(Cl)c(C)c(C(C)=O)c(OCCN2CC(O)C2)c1OCCCc1ccccc1: > 300 nM
- CC(=O)Nc1ccc(C(C)=O)c(OCCCc2ccccc2)c1 [reference compound]: > 300 nM

Problem: Param item = COc1c(Cl)c(C)c(C(C)=O)c(OCCOc2cnccn2)c1OCCC(C)c1ccc(F)cc1 (centres unmarked) [Example 18b] ; retrieve measured EC50.
Result: < 50 nM

Problem: Param item = COc1c(Cl)c(C)c(C(C)=O)c(OCCn2ccnc2)c1OCCC(C)c1ccc(F)cc1 (centres unmarked) ; retrieve measured EC50.
Result: < 50 nM

Problem: Param item = COc1c(Cl)c(C)c(C(C)=O)c(OCCNC2CCCC2)c1OCCC(C)c1ccc(F)cc1 (centres unmarked) ; retrieve measured EC50.
Result: 50 to 150 nM

Problem: Param item = CC(=O)c1c(OCCCCOc2ccccc2)cccc1OCCN1CCOCC1 [reference compound] ; retrieve measured EC50.
Result: > 300 nM

Source of measurements: patent US8202513B2
